Parameter pIC50, tested on HCV polymerase (Hepatitis C virus genotype 1b), listed per item.
When answering, recall that pIC50 equals minus log10 of the concentration in mol/L, and write that number alone.

Prompt line: Form field: reported pIC50 of Cc1cccc(S(=O)(=O)N2CC(=O)N(c3cc(-c4ccccc4)sc3C(=O)O)C(C3CCCCC3)C2)c1 (stereo not shown)
Response line: 7.82

Prompt line: Further, for `O=C(O)c1sc(-c2ccccc2)cc1N1C(=O)CN(S(=O)(=O)c2ccc(-c3ccccc3)nc2)C[C@H]1C1CCCCC1` ?
Response line: 9.00

Prompt line: How about `Cn1ccc(S(=O)(=O)N2CC(=O)N(c3cc(-c4ccc(Cl)cc4)sc3C(=O)O)[C@H](C3CCCCC3)C2)n1` ?
Response line: 8.52

Prompt line: And for `COc1cccc(S(=O)(=O)N2CC(=O)N(c3cc(C#CC(C)(C)C)sc3C(=O)O)[C@H](C3CCCCC3)C2)c1` ?
Response line: 8.70

Prompt line: Can you check O=C(O)c1sc(-c2ccccc2)cc1N1C(=O)CN(S(=O)(=O)c2cccc(-c3ccccc3)c2)CC1C1CCCCC1 (stereo not shown) next?
Response line: 7.35

Prompt line: Do the same for O=C(O)c1sc(-c2ccccc2)cc1N1C(=O)CN(S(=O)(=O)c2ccc(F)cc2)CC1C1CCCCC1 (stereo not shown) please
Response line: 7.52

Prompt line: Proceed to O=C(O)c1sc(-c2ccccc2)cc1N1C(=O)CN(S(=O)(=O)c2ccc(N3C4CCC3CC4)nc2)CC1C1CCCCC1 (stereo not shown)
Response line: 7.74
